Molecular target: Cdk2[C177A, F80C, K278C] (Homo sapiens, UniProt P24941, C177A/F80C/K278C)
Construct: poly-histidine; made in house; host or cells: E. coli
Assay: Kinetic thiol consumption assay with mutant Cdk2 as model thiol
Assay type: binding
Parameters: unit not given here
Settings: 500 μM ligand, 5 μM thiol, phosphate buffer pH 8
Response field label takes true (1) when Rate constant with Cdk2[C177A, F80C, K278C] (k(Cdk2_mut)) is strictly below 0.008 and false (0) in all other cases.

Worked cases, answers included:
Molecule: C=CC(=O)N1CCCC1c1cnc2ccccc2c1 (centres unmarked)
Test Target: Cdk2[C177A, F80C, K278C] (Homo sapiens, UniProt P24941, C177A/F80C/K278C)
Category Label: true (1)

Molecule: C=CC(=O)NCCNC(=O)c1ccccc1
Test Target: Cdk2[C177A, F80C, K278C] (Homo sapiens, UniProt P24941, C177A/F80C/K278C)
Category Label: false (0)

Molecule: C=CC(=O)NCCNC(=O)C1CCCN1S(=O)(=O)c1ccccc1 (centres unmarked)
Test Target: Cdk2[C177A, F80C, K278C] (Homo sapiens, UniProt P24941, C177A/F80C/K278C)
Category Label: true (1)

Molecule: C=CC(=O)Nc1nc2cc3c(cc2s1)OC(F)(F)O3
Test Target: Cdk2[C177A, F80C, K278C] (Homo sapiens, UniProt P24941, C177A/F80C/K278C)
Category Label: false (0)

Molecule: C=CC(=O)NC(C)c1cccc(N2CCOCC2)c1 (centres unmarked)
Test Target: Cdk2[C177A, F80C, K278C] (Homo sapiens, UniProt P24941, C177A/F80C/K278C)
Category Label: true (1)

Is the reported Rate constant with Cdk2[C177A, F80C, K278C] (k(Cdk2_mut)) for "C=CC(=O)Nc1ccc(C(=O)NC2CCCC2)cc1" strictly below 0.008?
false (0)

Is the reported Rate constant with Cdk2[C177A, F80C, K278C] (k(Cdk2_mut)) for C=CC(=O)N1CCN(S(C)(=O)=O)CC1c1ccccc1 (centres unmarked) strictly below 0.008?
true (1)

Is the reported Rate constant with Cdk2[C177A, F80C, K278C] (k(Cdk2_mut)) for C=CC(=O)NC1CC(NC(=O)C2CCC2)C1 (centres unmarked) strictly below 0.008?
true (1)

Is the reported Rate constant with Cdk2[C177A, F80C, K278C] (k(Cdk2_mut)) for C=CC(=O)N1CCc2sccc2C1c1cccs1 (centres unmarked) strictly below 0.008?
false (0)

Is the reported Rate constant with Cdk2[C177A, F80C, K278C] (k(Cdk2_mut)) for "C=CC(=O)N(CC(=O)NC1CC1)C1CC1" strictly below 0.008?
true (1)

---

Target: Cdk2(T182C) (C177A) (Homo sapiens, UniProt P24941, C177A/T182C)
Construct: poly-histidine; made in house; host or cells: E. coli
Experiment: Kinetic thiol consumption assay with Cdk2 mutant T182C
Assay type: binding
Settings: Protein: Cdk2; cysteine position T182C; additional mutation C177A; in h^-1
Assign classes using reported Rate constant with Cdk2 T182C values and the ranges bin 1 (below 0.005), bin 2 (0.005 to below 0.03), bin 3 (0.03 or more), please.

Input C=CC(=O)N1CCCC1c1ccc(OC)cc1 (stereo not drawn) ; output its category
bin 2

Input C=CC(=O)NC(Cc1ccccc1)C(O)CF (stereo not drawn) ; output its category
bin 1

Input "C=CC(=O)N1CCCN(Cc2noc(C3CC3)n2)CC1" ; output its category
bin 2
